Protocol: Bioavailability study in NZW rabbits after single dose topical administration, sorafenib content by LC-MS
Assay type: in vivo
Experimental conditions: male, NZW, rabbit, cornea, topical, 50 μL; 120 min (2 h) post treatment, SD=±596
Quantity: concentration at 120 min (ng/g)
Numbers only, in ng/g.

Give concentration at 120 min for CNC(=O)c1cc(Oc2ccc(NC(=O)Nc3ccc(Cl)c(C(F)(F)F)c3)cc2)ccn1 1710
